- testedOn: mutant CFTR (Homo sapiens, UniProt P13569, DEL508-508)
- Sequence (P13569 with tags, fused parts or gaps DEL508-508): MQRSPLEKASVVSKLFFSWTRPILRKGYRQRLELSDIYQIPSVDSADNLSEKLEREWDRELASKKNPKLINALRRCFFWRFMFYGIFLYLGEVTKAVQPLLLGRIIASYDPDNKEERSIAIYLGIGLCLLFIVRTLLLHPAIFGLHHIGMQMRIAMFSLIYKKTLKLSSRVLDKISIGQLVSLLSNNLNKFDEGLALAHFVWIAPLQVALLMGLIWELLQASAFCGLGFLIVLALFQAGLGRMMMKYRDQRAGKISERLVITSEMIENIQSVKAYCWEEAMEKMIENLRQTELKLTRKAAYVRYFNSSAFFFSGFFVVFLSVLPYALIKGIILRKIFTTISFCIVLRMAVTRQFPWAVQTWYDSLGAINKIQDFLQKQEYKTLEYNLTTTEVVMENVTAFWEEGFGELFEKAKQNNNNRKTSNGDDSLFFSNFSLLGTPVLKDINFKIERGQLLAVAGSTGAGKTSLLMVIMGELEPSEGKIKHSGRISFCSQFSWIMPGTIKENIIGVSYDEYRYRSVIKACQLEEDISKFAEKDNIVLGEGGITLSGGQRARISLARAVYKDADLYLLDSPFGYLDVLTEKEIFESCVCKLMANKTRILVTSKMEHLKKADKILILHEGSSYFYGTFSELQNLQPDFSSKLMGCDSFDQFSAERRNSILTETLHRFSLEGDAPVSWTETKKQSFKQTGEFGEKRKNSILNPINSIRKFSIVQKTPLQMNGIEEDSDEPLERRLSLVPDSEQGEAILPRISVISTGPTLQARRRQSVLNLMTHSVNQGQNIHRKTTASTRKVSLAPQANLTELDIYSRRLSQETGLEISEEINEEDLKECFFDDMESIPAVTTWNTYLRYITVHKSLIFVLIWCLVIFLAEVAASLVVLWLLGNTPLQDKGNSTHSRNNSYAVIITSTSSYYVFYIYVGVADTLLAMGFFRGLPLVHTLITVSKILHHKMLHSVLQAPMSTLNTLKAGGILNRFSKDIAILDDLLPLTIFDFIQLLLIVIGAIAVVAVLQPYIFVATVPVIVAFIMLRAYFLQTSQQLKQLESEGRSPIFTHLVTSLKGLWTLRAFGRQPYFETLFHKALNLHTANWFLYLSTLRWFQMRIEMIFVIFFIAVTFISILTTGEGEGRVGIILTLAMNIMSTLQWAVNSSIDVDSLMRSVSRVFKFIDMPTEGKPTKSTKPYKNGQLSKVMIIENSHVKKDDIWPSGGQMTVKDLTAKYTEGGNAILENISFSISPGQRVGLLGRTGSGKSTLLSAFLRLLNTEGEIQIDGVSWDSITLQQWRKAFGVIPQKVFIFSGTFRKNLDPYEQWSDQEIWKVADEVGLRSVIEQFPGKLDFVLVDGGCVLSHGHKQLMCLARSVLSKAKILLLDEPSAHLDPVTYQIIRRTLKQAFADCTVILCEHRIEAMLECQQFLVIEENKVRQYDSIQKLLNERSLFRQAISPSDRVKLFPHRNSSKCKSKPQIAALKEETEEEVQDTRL
- assayOverview: Fluorescence (HS-YFP) assay for CFTR activity, corrector assay
- testConditions: CFBE41o- and FRT cells with stable expression of mutant CFTR, 24 h compound treatment
pEC50: −log10 of the molar value.
pEC50 values by entry

CN(C(=O)c1cccc(-n2nc(C(F)(F)F)cc2OCc2ccc(C(=O)O)cc2)c1)c1ccc2c(c1)OC(F)(F)O2; > 6.00
Cc1cc(CO)n(-c2cccc(C(=O)N(C)c3ccc4c(c3)OCO4)c2)n1; < 5.70
Cc1nn(-c2cccc(C(=O)N(C)c3ccc4c(c3)OCO4)c2)c([C@@H](C)O)c1Cl (racemic); < 5.70
CN(C(=O)c1cccc(-n2nc(C(F)(F)F)cc2-c2ccccc2)c1)c1ccc2c(c1)OCO2; > 6.00
Cc1noc2cc(N(C)C(=O)c3cccc(-n4nc(C(F)(F)F)c(Cl)c4COc4ccc(C(=O)O)cc4)c3)ccc12; > 6.00

// query pEC50 value for entry `CN(C(=O)c1cccc(-n2nc(C(F)(F)F)c(Cl)c2OCc2ccc(C(=O)O)cc2)c1)c1ccc2c(c1)OC(F)(F)O2`
> 6.00

// query pEC50 value for entry `Cc1nc2cc(F)c(NC(=O)c3cccc(-n4nc(C(F)(F)F)c(Cl)c4C)c3)cc2o1`
> 6.00

// query pEC50 value for entry `Cc1c(Cl)c(C(F)(F)F)nn1-c1cccc(C(=O)Nc2cc3c(cc2CO)OCO3)c1`
> 6.00

// query pEC50 value for entry `Cc1noc2cc(N(C)C(=O)c3cccc(-n4nc(C(F)(F)F)cc4OCc4ccc(C(=O)O)cc4)c3)ccc12`
< 5.70

// query pEC50 value for entry `Cc1c(Cl)c(C(F)(F)F)nn1-c1cccc(C(=O)Nc2ccc3cn(C)nc3c2)c1`
< 5.70

// query pEC50 value for entry `CN(C(=O)c1cccc(-n2nc(C(F)(F)F)c(C=O)c2Oc2ccccc2)c1)c1ccc2c(c1)OCO2`
> 6.00

----------
- testedOn: mutant CFTR (Homo sapiens, UniProt P13569, DEL508-508)
- assayOverview: Fluorescence (HS-YFP) assay for CFTR activity, corrector assay
- testConditions: CFBE41o- and FRT cells with stable expression of mutant CFTR, 24 h compound treatment
property: EC50

Here are 5 molecules together with their reported answers.
Cc1c(Cl)c(C(F)(F)F)nn1-c1cccc(C(=O)Nc2cc3c(cc2C(=O)O)OCO3)c1 [Int-178]; > 2000 nM
Cc1nn(-c2cccc(C(=O)Nc3ccc4c(c3)OCCO4)c2)c(C)c1Cl [Int-002]; > 2000 nM
Cc1nn(-c2cccc(C(=O)N(C)c3cc4c(cc3Cl)OC(F)(F)O4)c2)c(C)c1Cl [compound 049]; < 1000 nM
Cc1c(C2CC2)c(C(F)(F)F)nn1-c1cccc(C(=O)N(C)c2ccc3c(c2)OCO3)c1 [compound 104]; < 1000 nM
CCOC(=O)CCC(=O)N1CCC(Oc2cc(C(F)(F)F)nn2-c2cccc(C(=O)N(C)c3ccc4c(c3)OC(F)(F)O4)c2)CC1 [compound 260]; < 1000 nM

Kindly review the next molecule as well.
// query EC50 value for entry Cc1nn(-c2cccc(C(=O)N(C)c3ccccc3)c2)c(C)c1Cl [compound 007]
> 2000 nM

----------
- testedOn: mutant CFTR (Homo sapiens, UniProt P13569, DEL508-508)
- assayOverview: Fluorescence (HS-YFP) assay for CFTR activity, corrector assay
- testConditions: CFBE41o- and FRT cells with stable expression of mutant CFTR, 24 h compound treatment
pEC50: −log10 of the molar value.
pEC50 values by entry

Here are 3 compounds together with their reported answers.
CC(C)Cc1c(Cl)c(C(F)(F)F)nn1-c1cccc(C(=O)N(C)c2ccc3c(c2)OCO3)c1 [compound 101]; > 6.00
Cc1nn(-c2cccc(C(=O)Nc3ccc4oc(C(C)C)nc4c3)c2)c(C)c1Cl [Int-061]; < 5.70
Cc1c(Cl)c(C(F)(F)F)nn1-c1cccc(C(=O)N(C)c2ccc3cn(C)nc3c2)c1 [compound 122]; 5.70 to 6.00

// query pEC50 value for entry CN(C(=O)c1cccc(-n2nc(C(F)F)c(C#N)c2COc2ccc(C(=O)O)cc2)c1)c1ccc2c(c1)OC(F)(F)O2 [compound 268]
> 6.00

// query pEC50 value for entry Cc1nc2cc(F)c(N(C)C(=O)c3cccc(-n4nc(C(F)(F)F)c(Cl)c4C)c3)cc2o1 [compound 154]
> 6.00

// query pEC50 value for entry Cc1nn(-c2cccc(C(=O)Nc3ccc4c(c3)OCO4)c2)c(C)c1Cl [Int-012]
< 5.70

// query pEC50 value for entry Cc1c(C#N)c(C(F)(F)F)nn1-c1cccc(C(=O)N(C)c2ccc3c(c2)OCO3)c1 [compound 187]
> 6.00

----------
- testedOn: mutant CFTR (Homo sapiens, UniProt P13569, DEL508-508)
- assayOverview: Fluorescence (HS-YFP) assay for CFTR activity, corrector assay
- testConditions: CFBE41o- and FRT cells with stable expression of mutant CFTR, 24 h compound treatment
pEC50: −log10 of the molar value.
property: pEC50

Here are 5 compounds together with their reported answers.
Cc1cc(C(F)(F)F)n(-c2cc(C(=O)N(C)c3ccc4c(c3)OCO4)ccn2)n1; < 5.70
Cc1nn(-c2cccc(C(=O)N(C)c3ccc4c(c3)OC(F)(F)C(F)(F)O4)c2)c(C)c1Cl; < 5.70
Cc1nn(-c2cccc(C(=O)N(C)c3ccc4c(c3)OCO4)c2)c(COc2cccc(C(=O)O)c2)c1Cl; 5.70 to 6.00
Cc1nn(-c2cccc(C(=O)N(C)c3ccc4c(c3)OCO4)c2)c(C)c1C(=O)NCCO; < 5.70
Cc1nc2ccc(NC(=O)c3cccc(-n4nc(C(F)(F)F)c(Cl)c4COc4ccc(C(=O)OC(C)(C)C)cc4)c3)cn2n1; < 5.70

// query pEC50 value for entry CN(C(=O)c1cccc(-n2nc(C(F)(F)F)cc2OC2CCC(C(=O)O)CC2)c1)c1ccc2c(c1)OCO2 (mixture of isomers)
> 6.00

// query pEC50 value for entry `Cc1c(Cl)c(C(F)(F)F)nn1-c1cccc(C(=O)N(C)c2ccc3c(c2)OCO3)c1`
> 6.00

Sourced from patent US12492193B2
